Values were extracted from patent US9150577B2.

Parameter pIC50, tested on Human RSK2 (Homo sapiens (Human), UniProt P51812), listed per item.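 Also: recombinant human RSK2 phosphorylating a substrate peptide, 90 min at 28 °C, leftover ATP read by luminescence, RLU scaled between no-kinase background and uninhibited kinase controls, 4-parameter fit.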
Sequence (P51812 whole entry): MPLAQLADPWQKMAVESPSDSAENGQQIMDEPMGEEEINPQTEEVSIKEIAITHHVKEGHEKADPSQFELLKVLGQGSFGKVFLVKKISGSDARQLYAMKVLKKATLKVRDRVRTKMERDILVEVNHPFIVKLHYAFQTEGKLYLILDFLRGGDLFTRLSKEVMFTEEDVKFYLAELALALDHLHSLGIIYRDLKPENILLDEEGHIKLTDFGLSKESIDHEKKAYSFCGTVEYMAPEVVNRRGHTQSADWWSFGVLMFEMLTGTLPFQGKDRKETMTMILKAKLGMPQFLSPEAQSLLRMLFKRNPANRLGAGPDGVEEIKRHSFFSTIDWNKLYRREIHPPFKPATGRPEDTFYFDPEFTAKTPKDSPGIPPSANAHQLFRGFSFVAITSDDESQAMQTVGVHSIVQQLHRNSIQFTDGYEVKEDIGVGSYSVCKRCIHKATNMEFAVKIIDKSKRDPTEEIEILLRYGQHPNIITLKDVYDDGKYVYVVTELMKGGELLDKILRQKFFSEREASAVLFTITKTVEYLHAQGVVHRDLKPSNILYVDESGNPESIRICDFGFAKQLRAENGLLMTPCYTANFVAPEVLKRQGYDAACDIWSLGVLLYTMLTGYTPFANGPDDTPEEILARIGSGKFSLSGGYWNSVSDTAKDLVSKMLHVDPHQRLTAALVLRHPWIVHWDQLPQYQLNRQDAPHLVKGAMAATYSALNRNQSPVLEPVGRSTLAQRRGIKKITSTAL
pIC50 here is simply -log10 of the concentration when that concentration is written in mol/L.

Example results:
CC1CNC(=O)c2cc3ccc(C(=O)Nc4nc5ccccc5n4C)cc3n2C1 (stereo not drawn)    8.09
CC1(C)CNC(=O)c2cc3ccc(C(=O)Nc4ccccc4C(N)=O)cc3n21    8.09

Turning now to a further compound:
Prompt: Please look up its pIC50: `O=C(Nc1cnn(CCc2ccccc2)c1)c1ccc2cc3n(c2c1)CCCNC3=O`
Completion: 7.77
